meta.source: a melting point compilation (Tetko et al.; mined from patent text by program, amines drawn as free bases though some values may be those of a salt)

quantityMeasured: melting point

Examples with their reported melting point follow.
Need melting point of `COC(=O)[C@H](Cc1ccc(O)cc1)NC(=O)C1(NC(=O)[C@@H](SC(C)=O)C(C)C)CCCC1` , thanks.
157 to 158 °C

Need melting point of CC(N)C(=O)Nc1coc2cc(NS(C)(=O)=O)c(Oc3ccccc3)cc2c1=O (centres undefined) , thanks.
111 to 113 °C

Need melting point of CCCCCCc1ccc(-c2ccc(C3CCC(C#N)(CCCCCC)CC3)cc2)cc1 (centres undefined) , thanks.
66 °C

Need melting point of `CCOc1nc(F)cc2nc(SSc3nc4cc(F)nc(OCC)n4n3)nn12` , thanks.
215 to 216 °C

Need melting point of `C#Cc1ccnc(-c2cc(N)c(Br)cc2[N+](=O)[O-])c1` , thanks.
226 to 228 °C

Need melting point of `COC(=O)C1CCN(Cc2ccc(-c3ccc4c(Nc5ccc(Sc6nccn6C)c(Cl)c5)c(C#N)cnc4c3)nc2)CC1` , thanks.
135 to 137 °C

***
Need melting point of `CS(=O)(=O)N1CCN(Cc2ccccc2)CC1` , thanks.
115 to 116 °C

Need melting point of `Cc1nc2c3c(ccn2c1C)C(=O)[C@](O)(Cc1ccccc1)[C@@H](c1ccccc1)N3` , thanks.
248 to 251 °C

Need melting point of `CC(=Cc1cccc(F)c1)C(=O)O` , thanks.
95 to 97 °C
